Every entry's value here was drawn from ChEMBL document CHEMBL1140709.

- Tested on: DLD-1
- assayRemarks: Antitumor activity against human DLD1 cells by trypan blue exclusion assay
- Assay type: functional, cell-based
endpointName: IC50 (µM)
Give bare numbers, in µM.

COc1cc(OC)c(/C=C/S(=O)(=O)Cc2ccc(OC(F)(F)F)cc2)c(OC)c1 4

Please give IC50 for each item listed below.
1. COc1cc(OC)c(/C=C/S(=O)(=O)Cc2ccc(OC)c(OC)c2OC)c(OC)c1
2. COc1ccc(CS(=O)(=O)/C=C/c2c(OC)cc(O)cc2OC)cc1O
3. COc1ccc(CS(=O)(=O)/C=C/c2ccc(C)cc2C)cc1
4. COc1ccc(CS(=O)(=O)/C=C/c2ccc(F)cc2Cl)cc1
5. COc1ccc(CS(=O)(=O)/C=C/c2ccc(F)cc2OC)cc1
6. COc1ccc(CS(=O)(=O)/C=C/c2ccc(Cl)cc2)cc1
7. COc1cc(OC)c(/C=C/S(=O)(=O)Cc2ccc(OC)c(OP(=O)([O-])O)c2)c(OC)c1.[Na+]

Result ::
1: 15; 2: 0.5; 3: 15; 4: 4; 5: 15; 6: 3; 7: 0.007

====

- assayRemarks: Antitumor activity against human multidrug-resistant 2008/17/4 cells by trypan blue exclusion assay
- Assay type: functional
endpointName: IC50 (nM)
Numbers only, in nM.

Query :: Item under review: COc1cc(OC)c(/C=C/S(=O)(=O)Cc2ccc(OC)c(O)c2)c(OC)c1 . Reported IC50?
Result :: 4

====

- System: Raji
- assayRemarks: Antitumor activity against human Raji cells by trypan blue exclusion assay
- Type: functional, cell-based
Provide the recorded IC50 for the entries that follow.
Give bare numbers, in nM.

COc1cc(OC)c(/C=C/S(=O)(=O)Cc2ccc(OC)c(O)c2)c(OC)c1 4

Query :: Consider the compound shown here: COc1ccc(CS(=O)(=O)/C=C/c2c(OC)cc(OC)cc2OC)cc1 What is its recorded IC50?
Result :: 9

====

- System: DLD-1
- assayRemarks: Antitumor activity against human DLD1 cells by trypan blue exclusion assay
- Format: functional, cell-based
endpointName: pIC50
One number for each entry, as −log10 of the molar value.

COc1ccc(CS(=O)(=O)/C=C/c2c(OC)cccc2OC)cc1 6.15
COc1cc(OC)c(/C=C/S(=O)(=O)Cc2ccc(Cl)cc2)c(OC)c1 4.82
COc1ccc(CS(=O)(=O)/C=C/c2c(OC)cc(F)cc2OC)cc1 6.12
COc1cc(OC)c(/C=C/S(=O)(=O)Cc2ccc(C(=O)O)cc2)c(OC)c1 4.82

Batch: pIC50 for all items listed.
1. COc1cc(OC)c(/C=C/S(=O)(=O)Cc2ccc(C#N)cc2)c(OC)c1
2. COc1ccc(CS(=O)(=O)/C=C/c2cc(OC)c(OC)c(OC)c2)cc1O

Result ::
4.70
5.00

====

- assayRemarks: Antitumor activity against human RF1 cells by trypan blue exclusion assay
- Type: functional, cell-based
Please provide measured IC50 for the entries that follow.
Numbers only, in nM.

COc1cc(OC)c(/C=C/S(=O)(=O)Cc2ccc(OC)c(O)c2)c(OC)c1 6

Let us move to another entry and its IC50.
Query :: Would you kindly share the measured IC50 for COc1ccc(CS(=O)(=O)/C=C/c2c(OC)cc(OC)cc2OC)cc1 ?
Result :: 8

====

- Test system: COLO 205
- assayRemarks: Antitumor activity against human COLO205 cells by trypan blue exclusion assay
- Type: functional, cell-based
Exercise: for every item that follows, state its recorded IC50.
Give bare numbers, in nM.

Give IC50 for each of the items listed below.
1. COc1cc(OC)c(/C=C/S(=O)(=O)Cc2ccc(OC)c(O)c2)c(OC)c1
2. COc1ccc(CS(=O)(=O)/C=C/c2c(OC)cc(OC)cc2OC)cc1

Result ::
9
15
